Where do the numbers come from? From ChEMBL document CHEMBL3407334.

molecular target: Maltase-glucoamylase (Homo sapiens, UniProt O43451); assay: Inhibition of alpha-glucosidase (unknown origin) using pNPG substrate incubated for 15 mins by microplate reader based method
Sequence (O43451 whole entry): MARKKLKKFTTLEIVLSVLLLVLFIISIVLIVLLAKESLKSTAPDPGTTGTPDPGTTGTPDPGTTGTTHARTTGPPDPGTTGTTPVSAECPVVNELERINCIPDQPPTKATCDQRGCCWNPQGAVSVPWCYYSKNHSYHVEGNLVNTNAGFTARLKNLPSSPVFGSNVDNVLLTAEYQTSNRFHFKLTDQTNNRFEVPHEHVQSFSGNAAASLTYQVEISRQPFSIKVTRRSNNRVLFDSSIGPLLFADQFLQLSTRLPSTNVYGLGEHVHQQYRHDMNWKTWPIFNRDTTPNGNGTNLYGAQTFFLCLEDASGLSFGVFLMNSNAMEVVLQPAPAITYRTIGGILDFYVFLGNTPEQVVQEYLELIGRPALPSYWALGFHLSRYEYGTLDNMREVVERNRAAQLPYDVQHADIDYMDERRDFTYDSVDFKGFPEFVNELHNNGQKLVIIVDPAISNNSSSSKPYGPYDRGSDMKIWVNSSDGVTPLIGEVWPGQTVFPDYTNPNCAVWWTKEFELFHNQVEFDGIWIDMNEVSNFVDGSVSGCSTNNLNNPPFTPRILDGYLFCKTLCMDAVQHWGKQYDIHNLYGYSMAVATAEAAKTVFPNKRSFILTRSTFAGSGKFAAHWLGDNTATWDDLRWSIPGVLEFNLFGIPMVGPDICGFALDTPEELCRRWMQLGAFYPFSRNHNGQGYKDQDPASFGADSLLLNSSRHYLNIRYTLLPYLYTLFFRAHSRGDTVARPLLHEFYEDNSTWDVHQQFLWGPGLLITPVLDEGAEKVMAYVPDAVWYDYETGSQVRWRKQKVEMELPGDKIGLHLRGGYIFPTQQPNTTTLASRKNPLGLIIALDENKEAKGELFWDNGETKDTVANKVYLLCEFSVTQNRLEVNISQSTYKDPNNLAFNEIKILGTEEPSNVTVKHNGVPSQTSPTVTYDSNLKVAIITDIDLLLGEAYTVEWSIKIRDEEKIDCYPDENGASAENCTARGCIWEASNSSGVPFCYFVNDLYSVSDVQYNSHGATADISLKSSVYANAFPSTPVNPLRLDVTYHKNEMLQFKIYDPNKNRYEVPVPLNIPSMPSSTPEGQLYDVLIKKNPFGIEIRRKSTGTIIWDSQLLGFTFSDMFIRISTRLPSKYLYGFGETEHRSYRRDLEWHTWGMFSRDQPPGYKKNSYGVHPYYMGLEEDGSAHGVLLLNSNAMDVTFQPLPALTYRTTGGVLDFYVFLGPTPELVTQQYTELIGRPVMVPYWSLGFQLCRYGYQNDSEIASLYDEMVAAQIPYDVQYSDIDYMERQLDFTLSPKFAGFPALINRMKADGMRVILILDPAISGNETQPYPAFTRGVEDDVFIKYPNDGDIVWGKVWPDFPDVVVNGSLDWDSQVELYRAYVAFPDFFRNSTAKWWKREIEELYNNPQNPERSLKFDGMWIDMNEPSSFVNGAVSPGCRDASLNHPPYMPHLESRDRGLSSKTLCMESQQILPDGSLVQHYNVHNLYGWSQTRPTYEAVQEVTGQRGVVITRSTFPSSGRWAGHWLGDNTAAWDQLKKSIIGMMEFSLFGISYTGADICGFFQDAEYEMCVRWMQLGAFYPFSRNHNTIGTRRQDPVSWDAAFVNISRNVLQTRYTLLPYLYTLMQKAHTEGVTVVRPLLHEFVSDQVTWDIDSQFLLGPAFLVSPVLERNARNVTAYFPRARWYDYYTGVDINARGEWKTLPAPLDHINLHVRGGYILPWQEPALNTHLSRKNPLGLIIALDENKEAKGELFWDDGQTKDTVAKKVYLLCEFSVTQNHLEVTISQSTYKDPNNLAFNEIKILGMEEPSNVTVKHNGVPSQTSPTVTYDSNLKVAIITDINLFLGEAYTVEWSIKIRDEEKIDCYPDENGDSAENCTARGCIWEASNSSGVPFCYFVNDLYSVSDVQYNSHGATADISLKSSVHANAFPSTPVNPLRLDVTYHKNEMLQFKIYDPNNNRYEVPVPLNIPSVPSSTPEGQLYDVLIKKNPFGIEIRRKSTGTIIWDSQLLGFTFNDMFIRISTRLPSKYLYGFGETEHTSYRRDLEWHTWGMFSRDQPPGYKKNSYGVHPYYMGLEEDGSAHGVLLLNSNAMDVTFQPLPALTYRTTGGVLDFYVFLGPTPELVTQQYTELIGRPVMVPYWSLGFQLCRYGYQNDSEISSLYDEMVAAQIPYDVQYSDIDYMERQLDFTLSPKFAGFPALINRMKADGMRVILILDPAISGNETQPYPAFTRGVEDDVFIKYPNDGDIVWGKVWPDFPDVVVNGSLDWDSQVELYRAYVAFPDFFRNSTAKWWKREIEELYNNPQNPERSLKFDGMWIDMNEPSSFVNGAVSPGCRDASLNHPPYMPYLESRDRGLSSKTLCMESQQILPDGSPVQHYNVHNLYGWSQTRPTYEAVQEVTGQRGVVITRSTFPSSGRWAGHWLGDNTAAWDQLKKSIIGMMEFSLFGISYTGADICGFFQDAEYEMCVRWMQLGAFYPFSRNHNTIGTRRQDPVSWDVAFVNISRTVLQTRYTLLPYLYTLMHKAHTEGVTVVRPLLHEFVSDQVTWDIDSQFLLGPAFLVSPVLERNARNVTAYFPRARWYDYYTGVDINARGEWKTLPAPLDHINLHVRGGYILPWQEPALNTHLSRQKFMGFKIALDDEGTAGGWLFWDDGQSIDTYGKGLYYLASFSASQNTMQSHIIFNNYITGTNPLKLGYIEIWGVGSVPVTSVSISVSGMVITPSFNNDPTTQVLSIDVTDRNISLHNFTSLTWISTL
reported endpoint: IC50

Example entries begin here.
O=C(N/N=C/c1ccncc1)c1ccc(-c2nc3ccccc3s2)cc1	Not Active
O=C(N/N=C/c1cccnc1)c1ccc(-c2nc3ccccc3s2)cc1	Not Active
COC(=O)c1ccc(/C=N/NC(=O)c2ccc(-c3nc4ccccc4s3)cc2)cc1	Not Active
COc1ccc(/C=N/NC(=O)c2ccc(-c3nc4ccccc4s3)cc2)cc1O	Not Active

Now consider a different compound.
Query: Recorded IC50 for `COc1ccc(/C=N/NC(=O)c2ccc(-c3nc4ccccc4s3)cc2)cc1OC` with Maltase-glucoamylase (Homo sapiens, UniProt O43451), please?
Result: Not Active
